FYI, the data here is from patent US20190364899A1.

Give melting point for every item shown.

Task: Form field: reported melting point of O=C(NCc1ccc(-c2noc(C(F)(F)F)n2)cc1F)OC1CCOCC1 [Compound 1.1]
Output: 105 to 108 °C

Please supply melting point for each of the following items, keeping them in order.
1. O=C(NCc1ccc(-c2noc(C(F)(F)F)n2)cc1)N1CCOCC1 [Compound 3.2]
2. O=C(NCc1ccc(-c2noc(C(F)(F)F)n2)cc1F)NC1CC1 [Compound 2.4]

Output:
["112 to 115 °C", "150.1 to 152.4 °C"]

###

MEASURE: melting point

Worked cases, melting point given:
Task: Form field: reported melting point of O=C(NCCc1ccc(-c2noc(C(F)(F)F)n2)cc1)NC1CC1
Output: 147 to 159 °C

Task: Form field: reported melting point of O=C(NCc1ccc(-c2noc(C(F)(F)F)n2)cc1)NCC1CC1
Output: 158.8 to 165 °C

Task: Form field: reported melting point of O=C(NCc1ccc(-c2noc(C(F)(F)F)n2)cc1F)NCC1CC1
Output: 157 to 160 °C

--- query ---
Task: Form field: reported melting point of O=C(NCc1ccc(-c2noc(C(F)(F)F)n2)c(F)c1)Nc1ccccc1Cl
Output: 173 to 178 °C
